Reported pKd values follow for various binders
- SYSTEM_UNDER_TEST: T1, postfusion RSV F ectodomain (F ΔFP), subtype A (respiratory syncytial virus subtype A, UniProt P03420 26-109; P03420 147-524)
- T1 construct: extracellular domain; also called Postfusion subtype A
- ASSAY_NOTES: BLI, IgG on sensor
# pKd is unitless: minus log10 of the molar concentration; print number only

Look up pKd for this binder: ADI-15633 (antibody, V domains shown, IgG) VH: QVQLVQSGAEVKKPGESLKISCKGSGYTFRMYWIGWARLLPGKGLEWIGIIYPGDSDTRYNPSLQGQVTMSVDKSINTAYLQWGSLKASDSAIYYCARLRLHPQSGMDVWGQGTLVTVSS VL: NFMLTQPHSVSESPGKTVVISCTRSSGSIAGYYVQWYQHRPGSSPTTVIYEDDQRPSGVPDRFSGSVDSSSNSASLTISGLKTEDEADYYCQSYDNAIWVFGGGTKLTVL
9.98

Check ADI-15632 (antibody, V domains shown, IgG; also called Antibody Number 197) VH: QVQLVQSGGGLVQPGRSLRLSCTASGFSFSDYGVTWVRQAPGKGLEWIGFVRTKGYGGTTEYAASVRGRFTISRDDSKSVAYLQLNSLKVEDTAVYYCSGASRGFWSGPTYYYFGMDVWGHGTTVTVSS VL: EIVLTQSPLSLAVTPGEPASISCRSSQSLLHGNGYNYLDWYLQKPGQSPQLLIFWGSYRASGAPDRFSASGSGSEFTLKIRRVEAEDVGVYYCMQPLQTTFGQGTKVDIK too.
8.65

Then this binder: ADI-15611 (antibody, V domains shown, IgG) VH: QVQLVESGAEVKKPGSSVKVSCKASGGTFGRDSISWVRQAPGQGLEWMGGINPIFHTSHYAQKFQGRVTITADESTSTAYMELGNLRSEDTAMYYCARVPPPRGHCESTSCLWGTYFAFWGQGTLVTVSS VL: ETTLTQSPATLSLSPGERATLSCRASQRVRSYLAWYQQKPGQAPRLLIYDASIRATGIPARFSGSGSGADFTLTISSLEPEDFAVYYCQLRDYWPPTWTFGQGTKVEIK
9.20

Further, for ADI-15573 (antibody, V domains shown, IgG; also called Antibody Number 143) VH: QVQLVQSGAEVKKPGASVKISCKTSGYTFTSSVISWVRQAPGQGLEWVGWITGHRSSTNYAQRLQGRVTMTTDTSTSTAYMELRSLRSDDTAVYYCARADGGSGSYYSAWGQGTLVTVSS VL: SYELTQPPSASVAPGKTARISCGGNNIGTKSVHWYQQKPGQAPVLVIYHDSHRPSGIPERFSGSNSGNTATLTISRVEAGDEADYYCQLWDSSSDSHVFGTGTKLTVL ?
9.70

Repeat for the following binder: ADI-15653 (antibody, V domains shown, IgG) VH: QVQLVQSGAEVKKPGSSVKVSCKSSGGTFSNYIISWVRQAPGQGLEWMGGIVPLSGTTDYAQKFQGRVTITADKSTTTAYMELRTLRPEDTAVYYCARGSGGSNAYFDPWGQGTLVTVSS VL: QSVVTQPPSVSVAPGKTAKITCGGNNIGSKSVYWYQQKPGQAPVLVMYYDTYRPSGIPERFSGSNSGNSATLTISRVDAGDEADYYCQVWDSRSDHPYVFGSGTKLTVL
9.51
